The reported numbers originate from the supplement of paper PMC9170038.

Each entry below lists one item and its recorded apparent KD of MS2 coat protein value.
- Test system: MS2 coat protein
- assay name: apparent KD of MS2 coat protein; designed switch direction (-1 OFF switch, 1 ON switch): -1; higher = weaker reporter binding
- test context: input ligand: none
Use nM as the unit, but write only the number.

Reference set, count: 3
UCUCCACAUGAGGAUCACCCAUGUCAGGAUAUGCUGCGGCUACUAAAAGAGAAUUGCGGCAGAAGGGACACGCC [EX1 B.25] (Eterna round: R97, puzzle: Exclusion 1); 20.2
GUAAUUAAUGUAGGAUAUGCAAGGCGAACCUAAGCAGAAGGACAUGAGGAUCACCCAUGUAUUGCGGUCUGCGUACAGAUCGCU [salish99_ExNG1_r4_008] (Eterna round: R96, puzzle: Exclusion NG 1); 19.9
AACCUGAGGCUUUGCUUUAGGUAUACAUGAGGAUCACCCAUGUAGGAUAUGGUAGGCUUUGCUUACCAGAAGGACAUGUUAAUU [JL ENG3 1.10] (Eterna round: R96, puzzle: Exclusion NG 3); 44.2

Ask: Answer with the recorded apparent KD of MS2 coat protein of CGAAAGUUAGGAUAUGCCCGGAACGACAUGAGGAUCACCCAUGUUAGCAAGGGACCUGGCGCAGAAGGAACGGAUA [EX5 C.20] (Eterna round: R97, puzzle: Exclusion 5) only.
Reply: 19.3

Ask: Answer with the recorded apparent KD of MS2 coat protein of CUGACGGCAGGAUAUACAUGAGGAUCACCCAUGUAAAUUUUUCGUUUAACUUGAAUGUGUAGAAGGGCCCAACC [Ex3 #79] (Eterna round: R97, puzzle: Exclusion 3) only.
Reply: 21.5

Ask: Answer with the recorded apparent KD of MS2 coat protein of UUUUUAUAUGAAGGAUAUACUUAACAUGAGGAUCACCCAUGUGGUGUUGUGAGUGAGUGAGUUUAGUAGAAGGUCAAGUAUUUA [JMF's solution 41] (Eterna round: R96, puzzle: Exclusion NG 2) only.
Reply: 380
